Assay: physchem
Conditions: medium of pH 6.8, 37 °C, pH 6.8, aqueous buffer, thermodynamic from solid
assay.readout: solubility at 24 h (µg/mL)

[[record]]
compound = "CCOc1ccc(Cc2cc([C@@H]3OC(CO)[C@@H](O)C(O)C3O)ccc2Cl)cc1 (some centres unmarked)"
result_number = 1200

[[record]]
compound = "CCOc1ccc(Cc2cc([C@@H]3O[C@H](CO)[C@@H](O)[C@H](O)[C@H]3O)ccc2Cl)cc1"
result_number = 1700

